The reported numbers originate from patent US10253015B2.

target: IDH1-R132C recombinant protein (Homo sapiens (Human), UniProt O75874, R132C); experiment: IDH1-R132C enzymatic assay; type: biochemical
Sequence (O75874 whole entry R132C): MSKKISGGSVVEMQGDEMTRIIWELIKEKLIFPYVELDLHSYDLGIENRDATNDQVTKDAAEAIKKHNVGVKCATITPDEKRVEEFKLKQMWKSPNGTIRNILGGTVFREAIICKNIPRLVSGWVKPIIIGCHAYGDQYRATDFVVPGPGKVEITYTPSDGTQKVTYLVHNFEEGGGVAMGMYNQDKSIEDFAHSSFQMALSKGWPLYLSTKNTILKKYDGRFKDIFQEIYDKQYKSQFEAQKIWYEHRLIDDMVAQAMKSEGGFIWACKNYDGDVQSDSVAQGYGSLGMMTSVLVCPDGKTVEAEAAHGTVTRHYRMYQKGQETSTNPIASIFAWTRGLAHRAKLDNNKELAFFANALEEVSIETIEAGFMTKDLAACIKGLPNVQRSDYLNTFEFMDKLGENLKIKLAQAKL
endpointName: IC50

Data request: Entry under review: COc1cc2[nH]c(=O)c([C@H](C)Nc3cc(OC)c(C#N)cn3)cc2cc1Cl . Reported IC50?
Data returned: < 100 nM

* * *

For each of the compounds below, state its pIC50.
target: IDH1-R132H recombinant protein (Homo sapiens (Human), UniProt O75874, R132H); experiment: IDH1-R132H enzymatic assay; type: biochemical; settings: inhibition of NADPH consumption, diaphorase/resazurin readout; read-out: Enzyme IDH1 R132H Range IC50
Sequence (O75874 whole entry R132H): as the sequence (O75874 whole entry R132C) above, with C132H counted along it
pIC50: −log10 of the molar value.

Data request: Entry under review: COc1ccnc(NCc2cc3cc(Cl)ccc3[nH]c2=O)c1 . Reported pIC50?
Data returned: 5.00 to 6.00

Data request: Entry under review: N#Cc1ccc(NCc2cc3cc(Cl)ccc3[nH]c2=O)cn1 . Reported pIC50?
Data returned: < 5.00

Data request: Entry under review: N#Cc1ccc(NCc2cc3cc(Cl)ccc3[nH]c2=O)nc1C(F)(F)F . Reported pIC50?
Data returned: 5.00 to 6.00

Data request: Entry under review: Cc1nc(NC(C)c2cc3cc(Cl)c(OCc4ccccn4)cc3[nH]c2=O)ccc1C#N (stereo not drawn) . Reported pIC50?
Data returned: > 7.00

Data request: Entry under review: COc1ccc2[nH]c(=O)c(CNc3cc(C)ccn3)cc2c1 . Reported pIC50?
Data returned: < 5.00

Data request: Entry under review: Cc1cc2cc(CNc3ccc(C#N)cn3)c(=O)[nH]c2cc1C . Reported pIC50?
Data returned: 6.00 to 7.00
